// provenance: PubChem BioAssay (NCATS)

protocol summary: qHTS of pediatric cancer cell lines to identify multiple opportunities for drug repurposing: Primary screen for SK-N-SH cells (AID 1347098); further: nearly all actives have a fitted effect of over 65% in size
test parameters: SK-N-SH viability, CellTiter-Glo luminescence, 48 h; series mostly up to 57 µM
Inconclusive results are not listed. Active and inactive are the calls of the source. The call rests on the fitted dose curve; in most records, active means well fitted cell-killing curve with a large enough effect; inconclusive means small, poorly fitted or top-dose-only effect; inactive means no such curve, though single readings can be large or run the other way.
Respond only with the outcome that fits, drawn from active, inactive

[in] Answer briefly: the call reported for CON=C(C(=O)N[C@@H]1C(=O)N2C(C(=O)OCOC(=O)C(C)(C)C)=C(C=Cc3scnc3C)CS[C@H]12)c1csc(N)n1 in this assay.
[out] inactive

[in] Answer briefly: the call reported for C[C@H](NC(=O)C(=O)Nc1ccccc1C(C)(C)C)C(=O)N[C@@H](CC(=O)O)C(=O)COc1c(F)c(F)cc(F)c1F in this assay.
[out] inactive

[in] Answer briefly: the call reported for O=C1C(Cl)=C(NCCN2CCOCC2)C(=O)c2ncccc21 in this assay.
[out] active

[in] Answer briefly: the call reported for CC/C(=C(\c1ccccc1)c1ccc(OCCN(C)C)cc1)c1ccccc1 in this assay.
[out] active

[in] Answer briefly: the call reported for CCOC(=O)C1=C(N)Oc2ccc(Br)cc2C1C(C#N)C(=O)OCC (configuration not stated) in this assay.
[out] active

[in] Answer briefly: the call reported for CC1(C)O[C@H]2C[C@@H]3[C@H]4CCC5=CC(=O)C=C[C@]5(C)[C@@]4(F)[C@@H](O)C[C@]3(C)[C@]2(C(=O)CO)O1 in this assay.
[out] inactive

[in] Answer briefly: the call reported for COc1ncc(-c2ccc3nccc(-c4ccnnc4)c3c2)cc1NS(=O)(=O)c1ccc(F)cc1F in this assay.
[out] active

[in] Answer briefly: the call reported for COc1cc2nc(-c3ccc(N4CCN(C)CC4)cc3)nc(NCCN3CCOCC3)c2cc1OC in this assay.
[out] active

[in] Answer briefly: the call reported for C[C@]12CC[C@@H]3c4ccc(O)cc4C[C@@H](CCCCCCCCCS(=O)CCCC(F)(F)C(F)(F)F)[C@H]3[C@H]1CC[C@H]2O (some centres not stated) in this assay.
[out] inactive

[in] Answer briefly: the call reported for C[N+](C)(C)CCCCCC[N+](C)(C)C in this assay.
[out] inactive

[in] Answer briefly: the call reported for CC(=O)N[C@@H](CS)C(=O)O in this assay.
[out] inactive

[in] Answer briefly: the call reported for O=C(O)Cc1cccc2ccccc12 in this assay.
[out] inactive

[in] Answer briefly: the call reported for CN(C)c1cc(NC(=O)CNC(C)(C)C)c(O)c2c1C[C@@H]1C[C@H]3[C@H](N(C)C)C(=O)C(C(N)=O)=C(O)[C@@]3(O)C(=O)C1=C2O in this assay.
[out] inactive

[in] Answer briefly: the call reported for O=C1c2ccccc2-[n+]2ccc3c([nH]c4ccccc43)c21 in this assay.
[out] active

[in] Answer briefly: the call reported for N#C[C@H]1C[C@H]2C[C@@H]2N1C(=O)[C@@H](N)C12CC3CC(CC(O)(C3)C1)C2 in this assay.
[out] active

[in] Answer briefly: the call reported for O=C(NOCC(O)CO)c1cc(Br)c(F)c(F)c1Nc1ccc(I)cc1F (configuration not stated) in this assay.
[out] active

[in] Answer briefly: the call reported for COc1ccc(-n2c(C)c([N+](=O)[O-])c3ccc(O)cc32)cc1 in this assay.
[out] active

[in] Answer briefly: the call reported for O=C(Nc1cc(Cl)cc2c1[nH]c1cnccc12)c1cccnc1 in this assay.
[out] active

[in] Answer briefly: the call reported for CN(C)Cc1cccc(N=C(c2ccccc2)c2c(O)[nH]c3cc(C(=O)N(C)C)ccc23)c1 in this assay.
[out] active

[in] Answer briefly: the call reported for O=C(O)CCC1CCC(c2cc(F)ccc2F)(S(=O)(=O)c2ccc(Cl)cc2)CC1 (configuration not stated) in this assay.
[out] inactive

[in] Answer briefly: the call reported for COc1ccc(-c2coc3cc(O)cc(O)c3c2=O)cc1 in this assay.
[out] active

[in] Answer briefly: the call reported for O=C(O)C(O)Cc1ccc(O)c(O)c1 (configuration not stated) in this assay.
[out] inactive

[in] Answer briefly: the call reported for O=c1cc(-c2ccccc2)oc2cc(O)c(O)c(O)c12 in this assay.
[out] inactive

[in] Answer briefly: the call reported for C=C1C(=O)[C@@]23C(CC[C@@H]1[C@H]2O)[C@@]12CO[C@]3(O)[C@@H](O)[C@@H]1C(C)(C)CC[C@@H]2O (some centres not stated) in this assay.
[out] active

[in] Answer briefly: the call reported for N[C@@]1(C(=O)O)CS(=O)(=O)[C@H]2[C@H](C(=O)O)[C@H]21 in this assay.
[out] inactive

[in] Answer briefly: the call reported for COc1ccc(-c2coc3cc(O)ccc3c2=O)cc1 in this assay.
[out] inactive

[in] Answer briefly: the call reported for CN(C)Cc1ccc(-c2nc3cccc4c3n2CCNC4=O)cc1 in this assay.
[out] active

[in] Answer briefly: the call reported for C[N+](C)(C)CC(=O)O in this assay.
[out] inactive

[in] Answer briefly: the call reported for COC1CCC(N(C(=O)C2CCC(C)CC2)c2cc(C3=CCCCC3)sc2C(=O)O)CC1 (configuration not stated) in this assay.
[out] inactive

[in] Answer briefly: the call reported for CCn1cc(C(=O)O)c(=O)c2ccc(C)nc21 in this assay.
[out] inactive

[in] Answer briefly: the call reported for CCC(CC)[C@H](NC(C)=O)[C@@H]1[C@H](O)[C@@H](C(=O)O)C[C@@H]1N=C(N)N in this assay.
[out] inactive

[in] Answer briefly: the call reported for CCCCCNC(=O)N1CCC(CN(Cc2ccc(Cl)cc2)Cc2ccc([N+](=O)[O-])s2)C1 (configuration not stated) in this assay.
[out] inactive

[in] Answer briefly: the call reported for O=C(NC1CCOCC1)c1ccc(-c2cc(-c3cn[nH]c3-c3ccccn3)ccn2)cc1 in this assay.
[out] inactive

[in] Answer briefly: the call reported for C[C@]12CCC3c4ccc(O)cc4CCC3C1CCC2=O (some centres not stated) in this assay.
[out] inactive

[in] Answer briefly: the call reported for CO[C@H]1C=CC=C(C)C(=O)NC2=CC(=O)C(NCCN(C)C)=C(C[C@@H](C)C[C@H](OC)[C@@H](O)[C@@H](C)C=C(C)[C@@H]1OC(N)=O)C2=O in this assay.
[out] active

[in] Answer briefly: the call reported for CC=CC[C@@H](C)C(=O)[C@H]1C(=O)N[C@@H](C(C)C)C(=O)N(C)CC(=O)N(C)[C@@H](CC(C)C)C(=O)N[C@@H](C(C)C)C(=O)N(C)[C@@H](CC(C)C)C(=O)N[C@@H](C)C(=O)N[C@H](C)C(=O)N(C)[C@@H](CC(C)C)C(=O)N(C)[C@@H](CC(C)C)C(=O)N(C)[C@@H](C(C)C)C(=O)N1C in this assay.
[out] active

[in] Answer briefly: the call reported for CCc1ccc(C=C2SC(=S)NC2=O)cc1 in this assay.
[out] inactive

---

protocol summary: qHTS of pediatric cancer cell lines to identify multiple opportunities for drug repurposing: Confirmatory screen for NB1643 cells (AID 1347109); further: nearly all actives have a fitted effect of over 45% in size
test parameters: NB1643 neuroblastoma cell viability; series mostly up to 45.9 µM
Records with an inconclusive call do not appear. Activity calls are given as the source filed them. Calls follow the shape of the dose curve; as a rule, active = well fitted cell-killing curve with a large enough effect; inconclusive = small, poorly fitted or top-dose-only effect, or effect the other way; inactive = no such curve, though single readings can be large or run the other way.
Respond only with the outcome that fits, drawn from yes (1) (active), no (0) (inactive)

[in] Answer briefly: the call reported for CCCCCCCCCCCC1=C(O)C(=O)C=C(O)C1=O in this assay.
[out] no (0)

[in] Answer briefly: the call reported for CC(C)(C(=O)NCC(F)(F)C(F)(F)F)C(=O)N[C@@H]1C(=O)Nc2ccccc2-c2ccccc21 in this assay.
[out] no (0)

[in] Answer briefly: the call reported for CC(=O)Oc1cc2c(s1)CCN(C(C(=O)C1CC1)c1ccccc1F)C2 (stereo not given) in this assay.
[out] no (0)

[in] Answer briefly: the call reported for O=C(O)CCC1CCC(c2cc(F)ccc2F)(S(=O)(=O)c2ccc(Cl)cc2)CC1 (stereo not given) in this assay.
[out] no (0)

[in] Answer briefly: the call reported for O=C(O)c1ccc(-c2c[nH]c3ncc(-c4ccccc4)cc23)cc1C1CCCC1 in this assay.
[out] no (0)

[in] Answer briefly: the call reported for CC1(C)CCC2=C(O1)c1ccccc1C(=O)C2=O in this assay.
[out] yes (1)

[in] Answer briefly: the call reported for O=C1NC(=O)C(=Cc2ccc3c(c2)OC(F)(F)O3)S1 in this assay.
[out] no (0)

[in] Answer briefly: the call reported for COc1cccc(-c2cc(=O)c3ccccc3o2)c1N in this assay.
[out] no (0)

[in] Answer briefly: the call reported for CC[C@]1(O)C[C@@H]2CN(CCc3c([nH]c4ccccc34)[C@@](C(=O)OC)(c3cc4c(cc3OC)N(C)[C@H]3[C@@](O)(C(=O)OC)[C@H](OC(C)=O)[C@]5(CC)C=CCN6CC[C@]43[C@@H]65)C2)C1 in this assay.
[out] yes (1)

[in] Answer briefly: the call reported for O=C1c2ccccc2-[n+]2ccc3c([nH]c4ccccc43)c21 in this assay.
[out] yes (1)
